# test: gradient 5% acetonitrile 3 min, to 50% in 2 min, to 85% in 15 min, held 3 min, 100 µL/min
# measurementContext: column: Zorbax Extend-C18 2.1 x 50 mm; eluents: water / acetonitrile, 0.1% formic acid
property: RP-LC retention time
Answer format: value, then unit.

QUERY: Entry "CC(C)c1ccc(NC(=O)C(=O)NCC2(CO)CC2)cc1" has what RP-LC retention time?
RESULT: 797 s

QUERY: Also "CCc1ccc(C(=O)Nc2cc3c(cc2S(=O)(=O)C(C)C)n(C)c(=O)n3C)cc1" ?
RESULT: 747 s

QUERY: # repeat for "Cc1ccc(S(=O)(=O)Nc2ccc(-c3cn4cccnc4n3)cc2)cc1[N+](=O)[O-]"
RESULT: 713 s

QUERY: Please give the result for "CCCn1c2ccccc2c2nnc(SCC(=O)Nc3nc(-c4ccccc4)cs3)nc21" too.
RESULT: 1080 s

QUERY: And the next one, "CC(C)c1nncn1C1CCN(S(=O)(=O)c2ccccc2Cl)CC1" ?
RESULT: 716 s

QUERY: Also "CC(C)Cn1cc(CCNC(=O)c2ccccc2)c2cccnc21" ?
RESULT: 770 s

QUERY: Please do the same for "O=c1c2ccccc2c(-c2nc(-c3ccncc3)no2)cn1-c1ccc(F)cc1" as well.
RESULT: 1080 s

QUERY: Try this molecule next: "CCOc1ccc(NS(=O)(=O)c2cc(C(=O)Nc3ccc(C)c(C)c3)n[nH]2)cc1"
RESULT: 902 s

QUERY: Field entry: "Cc1nnc2c(=O)n(CC(=O)NCc3ccccc3Cl)c3cccnc3n12"
RESULT: 693 s

QUERY: # repeat for "COc1ccc(C(=O)NCCc2cn3cccc(C)c3n2)c(OC)c1"
RESULT: 551 s

QUERY: Would you mind doing CC(C)c1noc(C2CCCCN2Cc2nc(-c3cccnc3)no2)n1 (stereo not given) as well?
RESULT: 832 s

QUERY: Now this one: "COc1ccc(-c2cn3c(CC(=O)Nc4ccc(Br)c(C)c4)csc3n2)cc1"
RESULT: 914 s

QUERY: Queued: "CN(C)C(=O)c1ccc2c(c1)CCN2C(=O)C1CCC1"
RESULT: 700 s

QUERY: // next record "COCCNC(=O)N1CCCN(C2=NS(=O)(=O)C(c3ccccc3)=C2C)CC1"
RESULT: 676 s

QUERY: Now this one: "COc1ccc(OC)c(CN2C[C@@H]3C(=O)N(C)C(=O)[C@@H]3C2)c1"
RESULT: 574 s

QUERY: And "CCOc1ccccc1N1CCN(c2cc(C(=O)O)c3cc(NC(=O)CC)ccc3n2)CC1" ?
RESULT: 634 s

QUERY: Also check "O=C(COc1cc(O)c2c(=O)c3ccccc3oc2c1)c1ccc(Cl)cc1"
RESULT: 1230 s

QUERY: Quick one: O=C(Nc1nnc(C2CC(=O)N(c3ccccc3)C2)o1)c1ccc(C(F)(F)F)cc1 (stereo not given)
RESULT: 793 s

QUERY: Try the molecule "COC(=O)c1ccc(-c2nc3cnccn3c2Nc2cccc(C)c2C)cc1"
RESULT: 980 s

QUERY: # repeat for CCNC(=O)C1CCCN(S(=O)(=O)c2cc(OC)ccc2OC)C1 (stereo not given)
RESULT: 699 s
